Reference source: the supplement of paper PMC12855868

B1: library; numbered along this chain (parent)
chain: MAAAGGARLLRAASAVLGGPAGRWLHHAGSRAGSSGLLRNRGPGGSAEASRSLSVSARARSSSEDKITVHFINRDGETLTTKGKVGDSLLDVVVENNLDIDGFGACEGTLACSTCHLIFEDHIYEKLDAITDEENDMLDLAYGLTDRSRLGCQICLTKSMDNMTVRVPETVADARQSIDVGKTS

Variants of: B1
assay_procedure: scaled log2 fold change in cell abundance, elesclomol vs control (0 = silent mean, 1 = nonsense mean) (scaled log2 ratio); higher = higher viability under elesclomol (loss of FDX1 cuproptosis function);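 also: variant abundance is its share of total variant reads in each endpoint sample, from next-generation sequencing of the integrated ORF PCR-amplified out of genomic DNA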
test_parameters: with HEK293T FDX1 KO; elesclomol 40 nM; glucose 10 mM; 11 days
readout_kind: scaled log2 fold change
The answer should be a number; do not append a unit.

Given the variant `R147K` , what is its reported scaled log2 fold change? -0.267

Also, `L98W` please. 0.189

Also, `T109F` please. -0.223

Also, `I72Y` please. -0.583

Also, `D91N` please. -0.0567

Also, `D65G` please. -0.165

Also, `G108N` please. 0.721

Also, `D146W` please. 0.978

Also, `F103E` please. 0.679

Also, `V165A` please. -0.318

Also, `D128E` please. 0.301

Also, `D136N` please. -0.651

Also, `E48M` please. 0.835

Also, `S50F` please. -0.396

Also, `W24Y` please. 0.0942

Also, `S159Y` please. -0.463

Also, `G181Y` please. -0.568

Also, `Q176C` please. -0.158

Also, `E134I` please. 0.865

Also, `G104P` please. 0.598

Also, `I178C` please. -0.695

Also, `A15S` please. 0.0336

Also, `E169F` please. 0.0831

Also, `R149S` please. 0.508

Also, `D121E` please. -0.162

Also, `G45T` please. -0.525

Also, `Y142S` please. -1.45

Also, `A111P` please. 1.01

Also, `E133Q` please. -0.406

Also, `L140K` please. -0.169

Also, `I67V` please. 0.832
